Items are presented alongside their recorded hERG % effect @ conc.
target-desc: Kv11.1 (hERG) ion channel (Homo sapiens (Human))
method-summary: Kv11.1 (hERG) ion channel activity, whole cell patch clamp in HEK293
Format: cell-based
assay-context: @ 30 μM
// return numeric value only (unit: %, not printed)

C[C@@H]1COCCN1c1cc([C@@H]2CCCOC2)c2c(n1)c(-c1ccn[nH]1)nn2C    −29
C[C@@H]1COCCN1c1cc(C2(S(C)(=O)=O)CC2)c2c(n1)c(-c1cc[nH]n1)nn2C    −24
C[C@@H]1COCCN1c1cc(-c2ccnn2C)c2c(n1)c(-c1cc[nH]n1)nn2C    −12
C[C@@H]1COCCN1c1cc(-c2cncn2C)c2c(n1)c(-c1cc[nH]n1)nn2C    −26
Cc1ccc(-c2cc(N3CCOC[C@H]3C)nc3c(-c4cc[nH]n4)nn(C)c23)cn1    −28
C[C@@H]1COCCN1c1cc(-c2ccnn2C(F)F)c2c(n1)c(-c1ccn[nH]1)nn2C    −12

Kindly consider the entry below.
Query block: Look up hERG % effect @ conc: C[C@@H]1COCCN1c1cc([C@H]2CCCOC2)c2c(n1)c(-c1ccn[nH]1)nn2C
Result block: −35

====

target-desc: Kv11.1 (hERG) ion channel (Homo sapiens (Human), UniProt Q12809)
Sequence (Q12809 whole entry): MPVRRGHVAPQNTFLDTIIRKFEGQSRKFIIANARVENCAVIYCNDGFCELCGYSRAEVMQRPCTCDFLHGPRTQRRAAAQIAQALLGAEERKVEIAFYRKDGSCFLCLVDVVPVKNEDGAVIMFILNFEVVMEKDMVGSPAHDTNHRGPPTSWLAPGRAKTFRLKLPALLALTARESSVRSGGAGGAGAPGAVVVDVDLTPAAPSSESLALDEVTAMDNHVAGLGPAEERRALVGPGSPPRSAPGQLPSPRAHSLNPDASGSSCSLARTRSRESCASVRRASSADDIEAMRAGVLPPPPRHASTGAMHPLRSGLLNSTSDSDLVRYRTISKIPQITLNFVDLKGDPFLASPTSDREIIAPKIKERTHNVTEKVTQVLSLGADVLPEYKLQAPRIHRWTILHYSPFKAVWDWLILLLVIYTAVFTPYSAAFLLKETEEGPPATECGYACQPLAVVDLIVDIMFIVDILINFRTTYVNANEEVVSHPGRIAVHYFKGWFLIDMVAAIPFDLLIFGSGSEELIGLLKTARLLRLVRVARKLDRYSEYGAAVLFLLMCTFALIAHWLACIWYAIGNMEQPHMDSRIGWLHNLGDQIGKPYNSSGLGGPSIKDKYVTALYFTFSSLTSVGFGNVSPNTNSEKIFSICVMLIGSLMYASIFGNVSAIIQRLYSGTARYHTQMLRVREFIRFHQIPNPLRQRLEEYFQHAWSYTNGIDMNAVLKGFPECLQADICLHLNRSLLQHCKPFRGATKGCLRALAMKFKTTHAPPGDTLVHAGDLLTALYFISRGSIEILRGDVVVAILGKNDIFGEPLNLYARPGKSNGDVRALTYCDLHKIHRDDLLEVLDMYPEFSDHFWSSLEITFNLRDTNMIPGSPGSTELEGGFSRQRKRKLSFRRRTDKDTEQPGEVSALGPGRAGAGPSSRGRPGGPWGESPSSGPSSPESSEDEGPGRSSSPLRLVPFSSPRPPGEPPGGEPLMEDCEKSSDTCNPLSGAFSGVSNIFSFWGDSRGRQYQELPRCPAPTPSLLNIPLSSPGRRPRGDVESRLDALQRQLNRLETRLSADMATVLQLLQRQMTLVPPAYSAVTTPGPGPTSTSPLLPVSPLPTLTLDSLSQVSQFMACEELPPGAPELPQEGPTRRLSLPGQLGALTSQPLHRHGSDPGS
method-summary: Kv11.1 (hERG) ion channel activity, whole cell patch clamp in HEK293
assay-context: heading: hERG Ki; HEK293 cells stably expressing hERG, patch clamp
Quick reference for Ki among some compounds

Sample answers from the record:
C[C@@H]1COCCN1c1cc(-c2ccnn2C)c2c(n1)c(-c1cc[nH]n1)nn2C    > 30 µM
Cc1cc(S(C)(=O)=O)ccc1-c1cc(N2CCOC[C@H]2C)nc2c(-c3cc[nH]n3)nn(C)c12    > 10 µM
Cc1ccc(-c2cc(N3CCOC[C@H]3C)nc3c(-c4cc[nH]n4)n[nH]c23)cn1    > 10 µM
Cc1nc(S(C)(=O)=O)ccc1-c1cc(N2CCOC[C@H]2C)nc2c(-c3cc[nH]n3)nn(C)c12    > 10 µM
C[C@@H]1COCCN1c1cc(-c2ccnc3[nH]ccc23)c2c(n1)c(-c1cc[nH]n1)nn2C    > 10 µM
C[C@@H]1COCCN1c1cc(C(C)(C)O)c2c(n1)c(-c1cc[nH]n1)nn2C    > 10 µM
C[C@@H]1COCCN1c1cc(-c2cccc(C#N)c2)c2c(n1)c(-c1cc[nH]n1)nn2C    > 10 µM
C[C@@H]1COCCN1c1cc(-c2ccc([S+](C)[O-])cc2)c2c(n1)c(-c1cc[nH]n1)nn2C (stereo partly shown)    > 10 µM

Query block: Fill blank: measured Ki of the compound C[C@@H]1COCCN1c1cc([C@@H]2CCOC2)c2c(n1)c(-c1ccn[nH]1)nn2C is ____.
Result block: > 10 µM

Query block: And what about the compound C[C@@H]1COCCN1c1cc(-c2cncn2C)c2c(n1)c(-c1cc[nH]n1)nn2C ?
Result block: > 30 µM

Query block: Now consider C[C@@H]1COCCN1c1cc(C2(S(C)(=O)=O)CC2)c2c(n1)c(-c1cc[nH]n1)nn2C and answer again.
Result block: > 30 µM

Query block: Next up: Cc1cc(S(C)(=O)=O)ncc1-c1cc(N2CCOC[C@H]2C)nc2c(-c3cc[nH]n3)nn(C)c12
Result block: > 10 µM

Query block: Entry C[C@@H]1COCCN1c1cc(C2CCOC2)c2c(n1)c(-c1ccn[nH]1)nn2C (stereo partly shown) please
Result block: > 10 µM

Query block: What about C[C@@H]1COCCN1c1cc(C2CCCOC2)c2c(n1)c(-c1ccn[nH]1)nn2C (stereo partly shown) ?
Result block: > 10 µM

Query block: Likewise for C[C@@H]1COCCN1c1ccc2c(n1)c(-c1ccn[nH]1)nn2C ?
Result block: > 10 µM

Query block: Can you handle C[C@@H]1COCCN1c1cc(-c2ccnn2C(F)F)c2c(n1)c(-c1ccn[nH]1)nn2C next?
Result block: > 30 µM
